Entries and their pIC50 values follow.
# System: P. falciparum 3D7 growth, pLDH absorbance
# TEST SUMMARY: blood-stage malaria parasite growth potency – strain 3D7, dose response (AID 2305)
Scale explanation: pIC50 corresponds to minus log10 of a concentration expressed in moles per litre.

# annotated cases, reported pIC50 shown
COMPOUND: O=C(/C=C/c1ccc(F)cc1)NC1CCC(CCN2CCCN(c3ccc(C(F)(F)F)cn3)CC2)CC1 (stereo not given)
pIC50: 5.97
//
COMPOUND: CCCC(=O)c1cnc2c(I)cccc2c1Nc1ccccc1C
pIC50: 5.94
//
COMPOUND: Cc1nc(C)c(-c2ccc(Oc3ccc(OC(F)(F)F)cc3)cc2)c(OC(=O)c2ccc(CN(C)C)cc2)c1Cl
pIC50: 6.85
//
COMPOUND: CCNc1cc(C)nc(Nc2ccc(F)cc2)n1
pIC50: 6.10
//
COMPOUND: O=C(NCCCCN1CCC(c2nc3ccccc3s2)CC1)c1cc2ccccc2[nH]1
pIC50: 5.99
//
COMPOUND: Cc1cccc(CNc2nccc3[nH]c4ccccc4c23)c1
pIC50: 5.72

Sample "Nc1c2c(nc3ccc(C(=O)Nc4cc(I)c(O)c(I)c4)cc13)CCCC2" — what was its pIC50?
6.00

Then "COc1ccc(N2CCN(CCCCNC(=O)c3ccc(NC(=O)c4ccc(Cl)cc4)cc3)CC2)c(C)c1" ?
6.12

Then O=C(NCc1ccc(Cl)c(Cl)c1)c1ccc(C2CCCN(Cc3ccc4nc[nH]c4c3)C2)cc1 (stereo not given) ?
6.11

Then C=CCOC(=O)N1CCC(CNCc2cccc(-c3ccc(-c4nc5c(C)cccc5[nH]4)s3)c2)C1 (stereo not given) ?
6.60
